We begin with a simple list: items and their reported pIC50.
Molecular target: Human Arginase 1 (Homo sapiens)
Sequence (P05089 whole entry): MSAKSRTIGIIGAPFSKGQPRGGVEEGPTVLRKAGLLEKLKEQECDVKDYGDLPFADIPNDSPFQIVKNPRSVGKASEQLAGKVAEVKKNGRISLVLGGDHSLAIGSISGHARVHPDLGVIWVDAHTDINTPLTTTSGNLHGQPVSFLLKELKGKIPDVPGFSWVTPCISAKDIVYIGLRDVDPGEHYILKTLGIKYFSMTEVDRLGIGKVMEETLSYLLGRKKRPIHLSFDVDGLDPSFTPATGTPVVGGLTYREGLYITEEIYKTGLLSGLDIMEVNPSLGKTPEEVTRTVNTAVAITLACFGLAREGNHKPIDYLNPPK
Assay: Human Arginase 1 enzyme inhibition (thioarginine/DTNB absorbance at 412 nm)
Conditions: recombinant enzyme 5 nM, 60 min, room temperature
Note on pIC50: it is the negative log10 of concentration, concentration in mol/L.

As a guide, the following entries are already answered.
Exercise: Query: pIC50; subject: NC(=O)NC[C@@H](CCCB(O)O)[C@H](N)C(=O)O
Key: 5.56

Exercise: Query: pIC50; subject: N[C@H](C(=O)O)[C@H](CCCB(O)O)CN1CCCCC1
Key: 5.15

Exercise: Query: pIC50; subject: CC(C)[C@H](N)C(=O)NC[C@H](CCCB(O)O)[C@H](N)C(=O)O
Key: 7.22

Exercise: Query: pIC50; subject: CNC(=O)[C@@H](CCCB(O)O)[C@H](N)C(=O)O
Key: 4.47

Exercise: Query: pIC50; subject: CC[C@H](C)[C@H](N)C(=O)NC[C@H](CCCB(O)O)[C@H](N)C(=O)O
Key: 7.31

Others:
Exercise: Query: pIC50; subject: NC[C@H](CCCB(O)O)[C@H](N)C(=O)O
Key: 7.05

Exercise: Query: pIC50; subject: CC(C)[C@H](N)C(=O)N[C@H](C(=O)O)[C@@H](CN)CCCB(O)O
Key: 4.88

Exercise: Query: pIC50; subject: CC(C)(C)[C@H](N)C(=O)NC[C@H](CCCB(O)O)[C@H](N)C(=O)O
Key: 7.52

Exercise: Query: pIC50; subject: C[C@H](N)C(=O)NC[C@@H](CCCB(O)O)[C@H](N)C(=O)O
Key: 6.80

###

We begin with a simple list: items and their reported log10 of IC50.
Target: Human Arginase 1 (Homo sapiens)
Test: Human Arginase 1 enzyme inhibition (thioarginine/DTNB absorbance at 412 nm)
Conditions: recombinant enzyme 5 nM, 60 min, room temperature
Note: values are log10 of IC50 expressed in nM.

Exercise: Query: log10 of IC50; subject: CN[C@H](C(=O)O)[C@@H](CN)CCCB(O)O
Key: 2.60

Exercise: Query: log10 of IC50; subject: NC(=O)[C@@H](CCCB(O)O)[C@H](N)C(=O)O
Key: 4.28

Exercise: Query: log10 of IC50; subject: NC[C@@H](CCCB(O)O)[C@H](N)C(=O)O
Key: 1.59

Exercise: Query: log10 of IC50; subject: N[C@H](C(=O)O)[C@H](CCCB(O)O)CN1CCOCC1
Key: 4.59

Exercise: Query: log10 of IC50; subject: NCC[C@@H](CCCB(O)O)[C@H](N)C(=O)O
Key: 2.34

Exercise: Query: log10 of IC50; subject: CNC[C@@H](CCCB(O)O)[C@H](N)C(=O)O
Key: 2.94

Exercise: Query: log10 of IC50; subject: C[C@H](N)C(=O)N[C@H](C(=O)O)[C@@H](CN)CCCB(O)O
Key: 3.34

Exercise: Query: log10 of IC50; subject: CC(=O)NC[C@@H](CCCB(O)O)[C@H](N)C(=O)O
Key: 3.71

Exercise: Query: log10 of IC50; subject: CN(C)C[C@@H](CCCB(O)O)[C@H](N)C(=O)O
Key: 3.32

Exercise: Query: log10 of IC50; subject: CC[C@H](N)C(=O)NC[C@@H](CCCB(O)O)[C@H](N)C(=O)O
Key: 2.26

Exercise: Query: log10 of IC50; subject: CC(C)[C@H](N)C(=O)NC[C@@H](CCCB(O)O)[C@H](N)C(=O)O
Key: 2.18

Exercise: Query: log10 of IC50; subject: CC[C@H](N)C(=O)NC[C@H](CCCB(O)O)[C@H](N)C(=O)O
Key: 1.59

Exercise: Query: log10 of IC50; subject: NCC(=O)NC[C@H](CCCB(O)O)[C@H](N)C(=O)O
Key: 1.34

Exercise: Query: log10 of IC50; subject: CC(C)[C@H](N)C(=O)N[C@H](C(=O)O)[C@H](CN)CCCB(O)O
Key: 3.41

Exercise: Query: log10 of IC50; subject: C[C@H](N)C(=O)N[C@H](C(=O)O)[C@H](CN)CCCB(O)O
Key: 1.83

Exercise: Query: log10 of IC50; subject: C[C@H](N)C(=O)NC[C@H](CCCB(O)O)[C@H](N)C(=O)O
Key: 0.95

###

Experiment: Bioavailability / pharmacokinetic study in male rats (IV and PO)
Assay type: in vivo
Settings: rat, pro-drug in plasma when dosed as pro-drug, PO 5 mg/kg
So basically: Cmax at 400 nM or higher? That is Criterion met. Lower than 400 nM? That is Criterion not met.

Reference set (2 entries):
Exercise: Form field: Cmax at least 400 nM? Entry: C[C@H](N)C(=O)N[C@H](C(=O)O)[C@H](CN)CCCB(O)O [Example 25]
Key: Criterion not met

Exercise: Form field: Cmax at least 400 nM? Entry: C[C@H](N)C(=O)N[C@H](C(=O)O)[C@@H](CN)CCCB(O)O [Example 14]
Key: Criterion not met

Others:
Exercise: Form field: Cmax at least 400 nM? Entry: CC[C@H](C)[C@H](N)C(=O)NC[C@H](CCCB(O)O)[C@H](N)C(=O)O [Example 22]
Key: Criterion met

Exercise: Form field: Cmax at least 400 nM? Entry: C[C@H](N)C(=O)NC[C@H](CCCB(O)O)[C@H](N)C(=O)O [Example 20]
Key: Criterion met

Exercise: Form field: Cmax at least 400 nM? Entry: CC(C)[C@H](N)C(=O)NC[C@H](CCCB(O)O)[C@H](N)C(=O)O [Example 19]
Key: Criterion met

Exercise: Form field: Cmax at least 400 nM? Entry: CC[C@H](N)C(=O)NC[C@H](CCCB(O)O)[C@H](N)C(=O)O [Example 21]
Key: Criterion not met

Exercise: Form field: Cmax at least 400 nM? Entry: NCC(=O)NC[C@H](CCCB(O)O)[C@H](N)C(=O)O [Example 24]
Key: Criterion met

###

We begin with a simple list: items and their reported AUC.
Assay: Bioavailability / pharmacokinetic study in male rats (IV and PO)
Type: in vivo
Details: rat, pro-drug in plasma when dosed as pro-drug, PO 5 mg/kg
Just the number please, in µM·h, no unit attached.

Exercise: Query: AUC; subject: CC[C@H](N)C(=O)NC[C@H](CCCB(O)O)[C@H](N)C(=O)O [Example 21]
Key: 0.35

Exercise: Query: AUC; subject: CC(C)[C@H](N)C(=O)NC[C@H](CCCB(O)O)[C@H](N)C(=O)O [Example 19]
Key: 1.4

Exercise: Query: AUC; subject: CC[C@H](C)[C@H](N)C(=O)NC[C@H](CCCB(O)O)[C@H](N)C(=O)O [Example 22]
Key: 0.92

Others:
Exercise: Query: AUC; subject: C[C@H](N)C(=O)NC[C@H](CCCB(O)O)[C@H](N)C(=O)O [Example 20]
Key: 1.25

Exercise: Query: AUC; subject: NCC(=O)NC[C@H](CCCB(O)O)[C@H](N)C(=O)O [Example 24]
Key: 2.9

###

Test: Bioavailability / pharmacokinetic study in male rats (IV and PO)
Format: in vivo
Conditions: rat, pro-drug in plasma when dosed as pro-drug, IV 2 mg/kg, read-out: Vdss
Method: Example 14 is a prodrug form of Example 1. Examples 19 to 22 and 24 to 26 are prodrugs of example 18. […] Example 19 was formulated in 0.9% w/v saline pH 4 (adjusted with 1 M HCl) for IV dosing. […] Absolute bioavailability was determined by comparing the PO dose normalized AUC of Example 18 when dosed as Example 19, versus the dose normalized IV AUC of Example 18 when dosed as Example 18. Where appropriate, measured, not nominal, doses were used in the calculation. […]
Rule: Vd below 0.2 L/kg gives Criterion met, anything at or above gives Criterion not met.

Exercise: Dear reviewer, please state whether C[C@H](N)C(=O)N[C@H](C(=O)O)[C@H](CN)CCCB(O)O [Example 25] has Vd strictly beneath 0.2 L/kg.
Key: Criterion met

Exercise: Dear reviewer, please state whether CC(C)[C@H](N)C(=O)NC[C@H](CCCB(O)O)[C@H](N)C(=O)O [Example 19] has Vd strictly beneath 0.2 L/kg.
Key: Criterion not met

Exercise: Dear reviewer, please state whether C[C@H](N)C(=O)N[C@H](C(=O)O)[C@@H](CN)CCCB(O)O [Example 14] has Vd strictly beneath 0.2 L/kg.
Key: Criterion not met

Exercise: Dear reviewer, please state whether C[C@H](N)C(=O)NC[C@H](CCCB(O)O)[C@H](N)C(=O)O [Example 20] has Vd strictly beneath 0.2 L/kg.
Key: Criterion not met

Exercise: Dear reviewer, please state whether CC(C)[C@H](N)C(=O)N[C@H](C(=O)O)[C@H](CN)CCCB(O)O [Example 26] has Vd strictly beneath 0.2 L/kg.
Key: Criterion met

Others:
Exercise: Dear reviewer, please state whether CC[C@H](N)C(=O)NC[C@H](CCCB(O)O)[C@H](N)C(=O)O [Example 21] has Vd strictly beneath 0.2 L/kg.
Key: Criterion not met
